Values were extracted from patent US10654845B2.

experiment_notes: log P by HPLC on reversed-phase column (C18), EEC Directive 79/831 Annex V.A8
condition_set: pH 2.7
Answer each item with its documented logP-acidic.

Below, 3 molecules whose answers are already recorded.
CCS(=O)(=O)c1ccc(N(S(C)(=O)=O)S(C)(=O)=O)nc1-c1nc2cc(C(F)(F)F)ncc2n1C	2.47
CCS(=O)(=O)c1ccc(NS(=O)(=O)C(F)(F)F)nc1-c1nc2cc(C(F)(F)F)ncc2n1C	2.37
CCS(=O)(=O)c1ccc(NC(C)=O)nc1-c1nc2cc(C(F)(F)C(F)(F)F)ncc2n1C	2.54

Report logP-acidic for every entry below.
1. CCOCC(=O)Nc1ccc(S(=O)(=O)CC)c(-c2nc3cc(C(F)(F)F)ncc3n2C)n1
2. CCSc1ccc(NC(=O)C(F)(F)F)nc1-c1nc2cc(C(F)(F)F)ncc2n1C

1: 2.64; 2: 3.18

----------
experiment_notes: log P by HPLC on reversed-phase column (C18), EEC Directive 79/831 Annex V.A8
condition_set: reversed-phase HPLC column (C18), pH 7.8, log P (neutral), preparation examples; neutral range, pH 7.8
Excerpt: Called log P (HCOOH) in the table. Called log P (neutral) in the table.
Doc: threshold 2 (exclusive). Items with chromatographic logP beneath it return yes (1); others return no (0).

CCS(=O)(=O)c1ccc(C(=S)NC)nc1-c1nc2cc(C(F)(F)F)ncc2n1C	no (0)
CCSc1ccc(S(=O)(=O)CC)c(-c2nc3cc(C(F)(F)F)ncc3n2C)n1	no (0)

Lab log: compare recorded chromatographic logP with 2; is it strictly lower for CCS(=O)(=O)c1ccc(/S(C)=N/C#N)nc1-c1nc2cc(C(F)(F)F)ncc2n1C (centres unmarked) ?
yes (1)

Lab log: compare recorded chromatographic logP with 2; is it strictly lower for `CCS(=O)(=O)c1ccc(NC(=O)C(C)C)nc1-c1nc2cc(C(F)(F)F)ncc2n1C` ?
no (0)

Lab log: compare recorded chromatographic logP with 2; is it strictly lower for `Cn1c(-c2nc(F)ccc2F)nc2cc(C(F)(F)F)ncc21` ?
no (0)

Lab log: compare recorded chromatographic logP with 2; is it strictly lower for `CCS(=O)(=O)c1ccc(C(=O)OC)nc1-c1nc2cc(C(F)(F)F)ncc2n1C` ?
no (0)

Lab log: compare recorded chromatographic logP with 2; is it strictly lower for `CCS(=O)(=O)c1ccc(SC)nc1-c1nc2cc(C(F)(F)F)ncc2n1C` ?
no (0)

----------
experiment_notes: log P by HPLC on reversed-phase column (C18), EEC Directive 79/831 Annex V.A8
condition_set: reversed-phase HPLC column (C18), pH 7.8, logP-neutral, LC-MS neutral range, pH 7.8, C18, 55° C.
Description: Called log P (HCOOH) in the table. Called log P (neutral) in the table.
assay_readout: chromatographic logP

Below, 3 compounds whose answers are already recorded.
CCS(=O)(=O)c1ccc(S(=O)(=O)NC(C)C)nc1-c1nc2cc(C(F)(F)F)ncc2n1C [Example 49]	2.49
CCS(=O)(=O)c1ccc(SC)nc1-c1nc2cc(C(F)(F)F)ncc2n1C [Example 28]	2.75
CCS(=O)(=O)c1ccc(S(=O)(=O)CC)c(-c2nc3cc(C(F)(F)F)ncc3n2C)n1 [Example 15]	2.28

Report chromatographic logP for every entry below.
1. CCS(=O)(=O)c1ccc(N)nc1-c1nc2cc(C(F)(F)F)ncc2n1C [Example 14]
2. CCS(=O)(=O)c1ccc(NS(C)(=O)=O)nc1-c1nc2cc(C(F)(F)F)ncc2n1C [Example 26]
3. CCS(=O)(=O)c1ccc(C(=S)NC)nc1-c1nc2cc(C(F)(F)F)ncc2n1C [Example 34]

[1.62, 0.85, 2.76]

----------
Answer each item with its documented logP-neutral.
experiment_notes: log P by HPLC on reversed-phase column (C18), EEC Directive 79/831 Annex V.A8
condition_set: pH 7.8
Source text: Called log P (HCOOH) in the table. Called log P (neutral) in the table.

CCS(=O)(=O)c1ccc(C(=S)NC2CC2)nc1-c1nc2cc(C(F)(F)F)ncc2n1C	3.14

Report logP-neutral for every entry below.
1. CCCOc1ccc(S(=O)(=O)CC)c(-c2nc3cc(C(F)(F)F)ncc3n2C)n1
2. CCS(=O)(=O)c1ccc(NC(=O)c2ccc(Cl)cc2)nc1-c1nc2cc(C(F)(F)F)ncc2n1C
3. CCS(=O)(=O)c1ccc(NC(=O)C(F)(F)C(F)F)nc1-c1nc2cc(C(F)(F)F)ncc2n1C
4. CCS(=O)(=O)c1ccc([S+]([O-])Cc2ccccc2)nc1-c1nc2cc(C(F)(F)F)ncc2n1C (centres unmarked)
5. CCC(=O)Nc1ccc([S+]([O-])CC)c(-c2nc3cc(C(F)(F)F)ncc3n2C)n1 (centres unmarked)

3.36
3.37
2.12
2.66
2.25

Report logP-neutral for every entry below.
1. CCNC(=O)c1ccc(S(=O)(=O)CC)c(-c2nc3cc(C(F)(F)F)ncc3n2C)n1
2. CCS(=O)(=O)c1ccc(S(=O)(=O)N(C)C)nc1-c1nc2cc(C(F)(F)F)ncc2n1C
3. CCS(=O)(=O)c1ccc(S(C)(=O)=O)nc1-c1nc2cc(C(F)(F)F)ncc2n1C
4. CCSc1ccc(NC(=O)CC)nc1-c1nc2cc(C(F)(F)F)ncc2n1C

1. 2.22
2. 2.47
3. 2.08
4. 2.62

----------
experiment_notes: log P by HPLC on reversed-phase column (C18), EEC Directive 79/831 Annex V.A8
condition_set: pH 2.7
Answer each item with its documented logP-acidic.

Below, 2 compounds whose answers are already recorded.
CCS(=O)(=O)c1ccc(NC(=O)c2cscn2)nc1-c1nc2cc(C(F)(F)F)ncc2n1C	2.60
CCS(=O)(=O)c1ccc(NC(=O)C(F)(F)F)nc1-c1nc2cc(C(F)(F)F)ncc2n1C	2.74

Turning to the following compound.
Bench note: what logP-acidic did `CCNC(=S)c1ccc(S(=O)(=O)CC)c(-c2nc3cc(C(F)(F)F)ncc3n2C)n1` show?
3.17

----------
experiment_notes: log P by HPLC on reversed-phase column (C18), EEC Directive 79/831 Annex V.A8
condition_set: pH 2.7
Answer each item with its documented logP-acidic.
Numbers only.

CCS(=O)(=O)c1ccc(S(C)(=O)=O)nc1-c1nc2cc(C(F)(F)F)ncc2n1C	2.08
CCS(=O)(=O)c1ccc(NC(=O)c2ccc(Cl)cc2)nc1-c1nc2cc(C(F)(F)F)ncc2n1C	3.37
CCS(=O)(=O)c1ccc(NC(=O)C(F)(F)C(F)F)nc1-c1nc2cc(C(F)(F)F)ncc2n1C	2.80
CCS(=O)(=O)c1ccc(OC(C)C)nc1-c1nc2cc(C(F)(F)F)ncc2n1C	3.31
CCS(=O)(=O)c1ccc(C(=O)NC2CC2)nc1-c1nc2cc(C(F)(F)F)ncc2n1C	2.34
CCS(=O)(=O)c1ccc(NC(=O)C(C)CSC)nc1-c1nc2cc(C(F)(F)F)ncc2n1C (stereo not drawn)	2.94

Report logP-acidic for every entry below.
1. CCC(=O)Nc1ccc(S(=O)(=O)CC)c(-c2nc3cc(C(F)(F)F)ncc3n2C)n1
2. CCS(=O)(=O)c1ccc(NC(=O)CC2CC2)nc1-c1nc2cc(C(F)(F)F)ncc2n1C
3. CCS(=O)(=O)c1ccc(S(=O)(=O)N(C)C)nc1-c1nc2cc(C(F)(F)F)ncc2n1C
4. CCNS(=O)(=O)c1ccc(S(=O)(=O)CC)c(-c2nc3cc(C(F)(F)F)ncc3n2C)n1
5. CCS(=O)(=O)c1ccc(NC(=O)C[S+](C)[O-])nc1-c1nc2cc(C(F)(F)F)ncc2n1C (stereo not drawn)
6. CCNC(=O)c1ccc(S(=O)(=O)CC)c(-c2nc3cc(C(F)(F)F)ncc3n2C)n1

2.33
2.71
2.54
2.36
1.63
2.29

----------
Answer each item with its documented logP-acidic.
experiment_notes: log P by HPLC on reversed-phase column (C18), EEC Directive 79/831 Annex V.A8
condition_set: LC-MS acidic range, pH 2.7 (HCOOH), C18, 55° C.

Report logP-acidic for every entry below.
1. CCS(=O)(=O)c1ccc(Sc2ccccc2)nc1-c1nc2cc(C(F)(F)F)ncc2n1C [Example 42]
2. CCS(=O)(=O)c1ccc(N(C)C(C)=O)nc1-c1nc2cc(C(F)(F)F)ncc2n1C [Example 69]
3. CCS(=O)(=O)c1ccc(SC(C)C)nc1-c1nc2cc(C(F)(F)F)ncc2n1C [Example 29]
4. CCS(=O)(=O)c1ccc(NC(=O)C(F)(F)C(F)(F)F)nc1-c1nc2cc(C(F)(F)F)ncc2n1C [Example 4]
5. CCS(=O)(=O)c1ccc(C(N)=O)nc1-c1nc2cc(C(F)(F)F)ncc2n1C [Example 46]

1. 3.68
2. 2.11
3. 3.62
4. 3.17
5. 1.78

----------
experiment_notes: log P by HPLC on reversed-phase column (C18), EEC Directive 79/831 Annex V.A8
condition_set: reversed-phase HPLC column (C18), pH 7.8, log P (neutral), preparation examples; neutral range, pH 7.8
Quick rule for you: chromatographic logP at 2 or higher means criterion met, lower means criterion not met.

See these solved cases before continuing.
CCOc1ccc(S(=O)(=O)CC)c(-c2nc3cc(C(F)(F)F)ncc3n2C)n1	criterion met
CCS(=O)(=O)c1ccc(S(=O)(=O)NC(C)C)nc1-c1nc2cc(C(F)(F)F)ncc2n1C	criterion met
CCS(=O)(=O)c1ccc(C(=O)O)nc1-c1nc2cc(C(F)(F)F)ncc2n1C	criterion not met
CCS(=O)(=O)c1ccc(NS(C)(=O)=O)nc1-c1nc2cc(C(F)(F)F)ncc2n1C	criterion not met
CCSc1ccc(F)nc1-c1nc2cc(C(F)(F)F)ncc2n1C	criterion met

Decide: is the reported value of chromatographic logP for CCS(=N)(=O)c1ccc(S(=O)(=O)CC)c(-c2nc3cc(C(F)(F)F)ncc3n2C)n1 (stereo not shown) equal to or greater than 2?
criterion not met

Decide: is the reported value of chromatographic logP for `CCS(=O)(=O)c1ccc(S(=O)(=O)CC)c(-c2nc3cc(C(F)(F)F)ncc3n2C)n1` equal to or greater than 2?
criterion met
